Assay Target: hTERT (Homo sapiens)
Sequence (O14746 whole entry): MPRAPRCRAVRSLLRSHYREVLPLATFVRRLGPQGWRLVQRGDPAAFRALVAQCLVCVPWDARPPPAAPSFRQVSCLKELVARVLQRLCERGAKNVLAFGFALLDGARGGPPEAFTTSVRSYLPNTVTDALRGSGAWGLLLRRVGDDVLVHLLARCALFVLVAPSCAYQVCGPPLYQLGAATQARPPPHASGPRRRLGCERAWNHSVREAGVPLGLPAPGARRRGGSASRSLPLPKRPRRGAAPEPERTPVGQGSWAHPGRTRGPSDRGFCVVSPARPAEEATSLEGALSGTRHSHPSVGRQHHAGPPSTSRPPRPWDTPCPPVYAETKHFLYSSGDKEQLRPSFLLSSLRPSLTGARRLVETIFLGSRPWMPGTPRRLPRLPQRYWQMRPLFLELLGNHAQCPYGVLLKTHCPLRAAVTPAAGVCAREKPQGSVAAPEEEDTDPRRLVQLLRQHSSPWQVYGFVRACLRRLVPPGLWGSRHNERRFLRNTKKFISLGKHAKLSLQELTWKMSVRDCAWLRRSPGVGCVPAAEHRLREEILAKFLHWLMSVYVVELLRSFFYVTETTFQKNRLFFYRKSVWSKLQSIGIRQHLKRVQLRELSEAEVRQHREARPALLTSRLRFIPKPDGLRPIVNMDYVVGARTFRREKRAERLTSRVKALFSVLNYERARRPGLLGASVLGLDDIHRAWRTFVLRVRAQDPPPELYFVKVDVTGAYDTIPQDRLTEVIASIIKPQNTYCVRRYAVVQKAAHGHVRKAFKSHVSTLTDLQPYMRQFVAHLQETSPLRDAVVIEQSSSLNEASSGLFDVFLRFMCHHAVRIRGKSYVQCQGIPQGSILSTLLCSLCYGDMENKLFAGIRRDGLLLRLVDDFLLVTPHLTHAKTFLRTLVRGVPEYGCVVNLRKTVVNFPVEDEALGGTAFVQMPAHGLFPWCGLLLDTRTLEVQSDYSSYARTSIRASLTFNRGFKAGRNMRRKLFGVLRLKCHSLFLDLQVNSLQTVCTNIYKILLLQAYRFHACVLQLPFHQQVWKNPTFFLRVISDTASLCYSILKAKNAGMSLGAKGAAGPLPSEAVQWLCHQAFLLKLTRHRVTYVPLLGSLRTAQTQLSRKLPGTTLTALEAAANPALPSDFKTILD
Experiment Summary: RT-TRAP with recombinant telomerase ([…])
Type: biochemical
Set-up: gene TERT
pIC50: −log10 of the molar value.
Endpoint: pIC50

q: pIC50 of `C/C(=C\C(=O)Nc1ccccc1C(=O)O)c1ccc2ccccc2c1` on hTERT (Homo sapiens)?
a: ~7.10
